Target: T1, Bzz1-1, P38822
T1 sequence (P38822 478-572, looked up): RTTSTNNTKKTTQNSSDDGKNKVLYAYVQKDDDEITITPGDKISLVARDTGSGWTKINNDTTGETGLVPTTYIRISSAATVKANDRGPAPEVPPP
Test: SPOT array
Conditions: median of control spots 4446
Readout Label: SPOT intensity

Some binders with known SPOT intensity results, for comparison:
RHLKLVPSTPMDIPW; 6
PALPSLPPPPLLNVD; 2
RSLRKRPTSPSISGS; 0
NFFRKKLGIPRKLKR; 0
LLIRWLILMPLVGSR; 3

a: RLSFFFPLDPAYIRN
b: NENKKLPPAPTVFGL
Task item: Parameter check: reported SPOT intensity is higher for which label, a or b ? I would appreciate it if you answered with the label of your choice.
Reply: b
(b: 3, a: 0)
